test system: SK-MEL-2; test: Growth inhibition of human SK-MEL-2 cells after 72 hrs by SRB assay; type: functional, cell-based; details: SK-MEL-2, 72 h
readout: IC50 (µg/mL)
Supply the numeric figure in µg/mL, leaving out any unit text.

Any idea what its IC50 is? The compound is `COc1ccc(CCN(Cc2ccccc2)Cc2c(O)ccc3c(=O)cc(C)oc23)cc1OC`
21.9

Any idea what its IC50 is? The compound is `COc1ccc(CCN(Cc2ccccc2)Cc2c(O)ccc3c(=O)cc(C)oc23)cc1`
19.9

Any idea what its IC50 is? The compound is `Cc1cc(=O)c2ccc(O)c(CN(CCc3ccccc3)Cc3ccccc3)c2o1`
17.4

Any idea what its IC50 is? The compound is `Cc1cc(=O)c2ccc(O)c(CN(CCc3ccccc3)Cc3ccc([N+](=O)[O-])cc3)c2o1`
74.1

Any idea what its IC50 is? The compound is `COc1ccc(CN(Cc2ccc(OC)cc2)Cc2c(O)ccc3c(=O)cc(C)oc23)cc1`
31.6

Any idea what its IC50 is? The compound is `COc1ccc(CN(Cc2ccccc2)Cc2c(O)ccc3c(=O)cc(C)oc23)cc1`
78.6

Any idea what its IC50 is? The compound is `CCN(Cc1ccc(OC)cc1)Cc1c(O)ccc2c(=O)cc(C)oc12`
60.3

Any idea what its IC50 is? The compound is `CCN(CCc1ccccc1)Cc1c(O)ccc2c(=O)cc(C)oc12`
57.5

Any idea what its IC50 is? The compound is `Cc1cc(=O)c2ccc(O)c(CN(Cc3ccccc3)Cc3ccccc3)c2o1`
17.8
